- Tested on: HOP-62 NSCLC
- test-summary: NCI-60 one-dose screen, 48 h (100 = growth as untreated, 0 = no growth, -100 = all killed)
- condition-label: 10 µM unless noted
About 83,000 compounds went through this panel and 20% of them were active in at least one assay; those are over-represented in the sample as a whole.
Listing of entries alongside the reported growth.
outcome-measure: growth (%)

[[record]]
compound = "COc1ccc(C2C(c3ccccc3)C(=O)N2c2cc(OC)c(OC)c(OC)c2)cc1I (configuration not stated)"
tested_on = "HOP-62 NSCLC"
units_of_measure = "%"
observed = 24.7

[[record]]
compound = "C=C(C)[C@@H]1CC[C@]2(C(=O)OCCCC[P+](c3ccccc3)(c3ccccc3)c3ccccc3)CC[C@]3(C)[C@H](CC[C@@H]4[C@@]5(C)CC[C@H](OC(=O)C(Cl)Cl)C(C)(C)[C@@H]5CC[C@]43C)[C@@H]12"
tested_on = "HOP-62 NSCLC"
units_of_measure = "%"
observed = -0.785

[[record]]
compound = "CCC[S@@](=O)c1ccc2nc(NC(=O)OC)[nH]c2c1"
tested_on = "HOP-62 NSCLC"
units_of_measure = "%"
observed = 66.2

[[record]]
compound = "Oc1ccccc1-c1nc2c3ccccc3c3ccccc3c2o1"
tested_on = "HOP-62 NSCLC"
units_of_measure = "%"
observed = 101

[[record]]
compound = "N#Cc1c(-c2ccc(F)cc2)nc(N/N=C/c2c[nH]c3ccccc23)nc1N1CCOCC1"
tested_on = "HOP-62 NSCLC"
units_of_measure = "%"
observed = 69.6

[[record]]
compound = "CCC1=C[C@H]2CN(CCc3c([nH]c4ccccc34)[C@@](C(=O)OC)(c3cc4c(cc3OC)N(C)[C@H]3[C@@](O)(C(=O)OC)[C@H](OC(C)=O)[C@]5(CC)[C@@H]6C[C@@H]6CN6CC[C@]43[C@@H]65)C2)C1"
tested_on = "HOP-62 NSCLC"
units_of_measure = "%"
observed = 10.7

[[record]]
compound = "O=C1Nc2ccc(Cl)cc2/C1=N/c1nc(-c2ccc(F)cc2)cs1"
tested_on = "HOP-62 NSCLC"
units_of_measure = "%"
observed = 54.1

[[record]]
compound = "CC1CCCN(CCCCCOc2ccc3oc4ccccc4c(=O)c3c2)C1 (configuration not stated)"
tested_on = "HOP-62 NSCLC"
units_of_measure = "%"
observed = 91.3

[[record]]
compound = "Fc1ccc(N/N=C/c2ccc(-n3cccn3)cc2)cc1"
tested_on = "HOP-62 NSCLC"
units_of_measure = "%"
observed = 82.1

[[record]]
compound = "O=c1c2ccccc2n(CC(O)CN2CCCC2)c2c(Br)cccc12 (configuration not stated)"
tested_on = "HOP-62 NSCLC"
units_of_measure = "%"
observed = 100

[[record]]
compound = "Nc1c(C(=O)c2ccccc2)sc2nc(-c3cc4ccccc4o3)cc(-c3ccc(Cl)cc3)c12"
tested_on = "HOP-62 NSCLC"
units_of_measure = "%"
observed = 102

[[record]]
compound = "FC(F)(F)c1ccc2c(Nc3cccc(C4CC(c5ccccc5)=NN4c4ccc(Cl)cc4)c3)ccnc2c1 (configuration not stated)"
tested_on = "HOP-62 NSCLC"
units_of_measure = "%"
observed = 60.2

[[record]]
compound = "Oc1c(CCl)cc(Cl)cc1Cc1cc(Cl)cc(Cc2cc(Cl)cc(CCl)c2O)c1O"
tested_on = "HOP-62 NSCLC"
units_of_measure = "%"
observed = 57.2

[[record]]
compound = "Nc1cc(N)c(S(=O)(=O)O)cc1N=Nc1cc([N+](=O)[O-])ccc1O"
tested_on = "HOP-62 NSCLC"
units_of_measure = "%"
observed = 90.6

[[record]]
compound = "O=C(/C(=C/c1ccc([N+](=O)[O-])cc1)SCc1ccc(F)cc1)c1ccc(Cl)cc1"
tested_on = "HOP-62 NSCLC"
units_of_measure = "%"
observed = 76.8

[[record]]
compound = "COc1c(O)cc2oc3cc(O[C@@H]4OC(C)[C@@H](O)[C@H](O)C4O)c(CC=C(C)C)c(O)c3c(=O)c2c1CC=C(C)C (some centres not stated)"
tested_on = "HOP-62 NSCLC"
units_of_measure = "%"
observed = 110

[[record]]
compound = "Cc1cccc(C)c1NCc1nnc(-c2ccc(O)cc2)o1"
tested_on = "HOP-62 NSCLC"
units_of_measure = "%"
observed = 111

[[record]]
compound = "COc1ccc(NC(=O)c2ccc(Nc3ncnc4[nH]c(C)c(C)c34)cc2)cc1"
tested_on = "HOP-62 NSCLC"
units_of_measure = "%"
observed = 108

[[record]]
compound = "Cc1cccc(NC(=O)c2sc3nc4c(cc3c2N)CN(Cc2ccccc2)CC4)c1C"
tested_on = "HOP-62 NSCLC"
units_of_measure = "%"
observed = 32.3

[[record]]
compound = "Cc1cccc(C)c1NCc1nnc(-c2ccco2)o1"
tested_on = "HOP-62 NSCLC"
units_of_measure = "%"
observed = 80.2

[[record]]
compound = "Cc1cc(C)nc(NS(=O)(=O)c2ccc(Nc3ccc4c5c(n(CCCN(C)C)c(=O)c4c3)-c3ccccc3C5=O)cc2)n1"
tested_on = "HOP-62 NSCLC"
units_of_measure = "%"
observed = 70.1

[[record]]
compound = "NC(=O)C(O)(c1ccccc1)c1ccccc1"
tested_on = "HOP-62 NSCLC"
units_of_measure = "%"
observed = 91.6

[[record]]
compound = "CCCCn1c2cc(OCc3cn(-c4ccc(Cl)cc4)nn3)ccc2c2ccnc(C)c21"
tested_on = "HOP-62 NSCLC"
units_of_measure = "%"
observed = 41.2

[[record]]
compound = "COc1cc(C(=O)Nc2cc(OC)c3ccn(C)c3c2)cc2c1C[C@]1(C)CC[C@@H](O)C(C)(C)[C@H]1O2"
tested_on = "HOP-62 NSCLC"
units_of_measure = "%"
observed = 11.7

[[record]]
compound = "c1ccc2c3c([nH]c2c1)C(c1ccc(C2NCCc4c2[nH]c2ccccc42)cc1)NCC3 (configuration not stated)"
tested_on = "HOP-62 NSCLC"
units_of_measure = "%"
observed = -70.3

[[record]]
compound = "COc1ccc(C(=O)c2cc(OC)c(OC)c(OC)c2)cc1OC(=O)CCl"
tested_on = "HOP-62 NSCLC"
units_of_measure = "%"
observed = 22

[[record]]
compound = "CCOC(=O)c1c(C)nc2c(c1N)CC(=O)N2CCc1ccccc1"
tested_on = "HOP-62 NSCLC"
units_of_measure = "%"
observed = 5.73

[[record]]
compound = "COc1ccc(/C=C(/C(=O)N2CCCC2)c2cc(OC)c(OC)c(OC)c2)cc1"
tested_on = "HOP-62 NSCLC"
units_of_measure = "%"
observed = 29.3

[[record]]
compound = "CN(C)c1ccc(-c2ccc3[nH]c(=O)nc(-c4ccc(F)cc4)c3c2)cn1"
tested_on = "HOP-62 NSCLC"
units_of_measure = "%"
observed = 48.2

[[record]]
compound = "CCSc1nc(Cl)c(C#N)c(-c2ccc(F)cc2)n1"
tested_on = "HOP-62 NSCLC"
units_of_measure = "%"
observed = 106

[[record]]
compound = "COc1ccc2[nH]c(-c3ccccc3)c(C=C(C#N)C#N)c2c1"
tested_on = "HOP-62 NSCLC"
units_of_measure = "%"
observed = 37.4

[[record]]
compound = "C=C(C)[C@@H]1CCC=C2CC[C@]3(C)[C@H](CC[C@@H]4[C@@]5(C)CCCNC(C)(C)[C@@H]5CC[C@]43C)[C@H]21"
tested_on = "HOP-62 NSCLC"
units_of_measure = "%"
observed = 77.8

[[record]]
compound = "O=c1[nH]nc(-c2ccc(Br)cc2)c2sc(NC(=S)Nc3ccc(Cl)cc3)nc12"
tested_on = "HOP-62 NSCLC"
units_of_measure = "%"
observed = 104

[[record]]
compound = "C/C(=C\\c1cnc(C)s1)[C@@H]1C[C@@H]2O[C@@H]2CCC[C@H](C)[C@H](O)[C@@H](C)C(=O)C(C)(C)[C@@H](O)CC(=O)O1"
tested_on = "HOP-62 NSCLC"
units_of_measure = "%"
observed = 26.5

[[record]]
compound = "C=C1C(=O)O[C@H]2[C@H]1CC/C(COC(=O)c1cccnc1)=C\\CC[C@@]1(C)O[C@@H]21"
tested_on = "HOP-62 NSCLC"
units_of_measure = "%"
observed = 85.2

[[record]]
compound = "COc1cc(C2=NN(C=O)C(c3cccc(Nc4ccnc5cc(C(F)(F)F)ccc45)c3)C2)cc(OC)c1OC (configuration not stated)"
tested_on = "HOP-62 NSCLC"
units_of_measure = "%"
observed = 70.1

[[record]]
compound = "CCn1cc(C(=O)O)c(=O)c2cc(F)c(N3CCN(CC(=O)Nc4ccc(/C(C)=N/OC)cc4)CC3)cc21"
tested_on = "HOP-62 NSCLC"
units_of_measure = "%"
observed = 88.8

